- Tested on: PPARg DBDmut IVT, anti-PPARg (DBD mutation: PPARg1 K132A/R137A, NR concentration 270 nM)
- experiment-description: PBM binding z-score (relative to random genomic background probes); higher = stronger binding; sequences stand for … in GC…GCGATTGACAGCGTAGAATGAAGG
measurement-type: PBM binding z-score
Reply briefly: the number, and no unit.

As a guide, the following entries are already answered.
{"columns": ["monomer-sequence", "measured"],
 "data": [
  ["ACTATTAGTTGAGTTAGGGCAACCGATACGACGC", 0.707],
  ["CGTCCAAGGTCATAGAAGGTCAGTGAAGACAGAT", 0.867],
  ["GCTTACGGGTCAGAGGTTATAGCATGAATAGAAT", 0.535],
  ["GCACCAAGGTGAATAGGTCGTTGATGAGTAGGCG", -0.894],
  ["GCGACTGGGGCATCAGTAGGTTACCATAACTTAA", -0.245],
  ["TGAATGAGGTTATGAGATCAGGGAACGTTGCAAA", -0.0697],
  ["CCAGACAGGTGAGAAGGTAAGTCAGCCTCGATTA", -0.901],
  ["CCTAGCAGGCCAGGGTCACTTAAGCATTTCGCTT", -0.972]
]}

Query :: So what does the record say about PBM binding z-score for TCTAGTCGGTCACGGAGGTCACACACGACGGGTA ?
Result :: 0.492

Query :: So what does the record say about PBM binding z-score for CTAGAAAGGTCGTGCTCAGGTGAGTATACCAAAC ?
Result :: 0.547

Query :: So what does the record say about PBM binding z-score for TCTGCTAGGTCAGTTGGTCCGCTAACGAGCTGCC ?
Result :: 0.95

Query :: So what does the record say about PBM binding z-score for TCGAGTAGGTTACCGATGGGGCATTCAGCTTTCT ?
Result :: -0.945

====

- System: RARg homodimer (NR concentration 270 nM)
- experiment-description: PBM binding z-score (relative to random genomic background probes); higher = stronger binding; sequences stand for … in GC…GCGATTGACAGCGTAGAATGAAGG
Assign label 1 whenever PBM binding z-score does not fall below 4; assign label 0 whenever it does.

# count of solved cases: 10
{"columns": ["monomer-sequence", "answer-label"],
 "data": [
  ["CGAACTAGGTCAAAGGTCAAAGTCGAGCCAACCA", "label 1"],
  ["CAGCCTAGGTCAGGGCCAGCATAGGAGGAACGTT", "label 0"],
  ["ATCGAAAGGTCGAAGTTGAGTATACCCACCCGAA", "label 0"],
  ["CGTCCAAGGTCAAGGTCCGTGAAAGAGACTCGAA", "label 1"],
  ["AGTCAAAGTTCATCTAGGTAACGTAGGATATGCT", "label 1"],
  ["CGAACGAGGGCATTAGTTGATAGCAAATGCCGAT", "label 0"],
  ["CCTACTGGGCCAAAAAGGTCATTGAGGCCGATAA", "label 1"],
  ["CCTTACGGGACACTCCAGGTTATAGCATCGGAGT", "label 0"],
  ["TCATATCGGTAAAAGGTGAAAGTCGGTGTGGTAA", "label 0"],
  ["TCTTGTAAATCAATAGAGGTTAAGAAAGTGCGCT", "label 0"]
]}

Query :: Given CCGAGTGGGTTATGGGGCATTCAGGCAACGGTGA , state whether its PBM binding z-score is at least 4.
Result :: label 0

====

- Tested on: PPARg DBDmut IVT, anti-PPARg (DBD mutation: PPARg1 K132A/R137A, NR concentration 270 nM)
- experiment-description: PBM binding z-score (relative to random genomic background probes); higher = stronger binding; sequences stand for … in GC…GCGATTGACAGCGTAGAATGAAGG
Assign label 1 whenever PBM binding z-score does not fall below -0.4; assign label 0 whenever it does.

# count of solved cases: 8
{"columns": ["monomer-sequence", "answer-label"],
 "data": [
  ["CCCATTAGTTGACCATAAGGGCAACCGAAGCTCG", "label 1"],
  ["CGAAGGAGGGCATGAGTTGATAGCAAATGCCGAT", "label 0"],
  ["CCTAGCAGGCCCGGGTCACTCAAGCATTTCGCTT", "label 0"],
  ["AGCACGAGGGCAATGAGTTGATAGCACGGGTGGC", "label 0"],
  ["ATCTCTAGGTAAAAATAGTTCAGTGAATGCAAAT", "label 1"],
  ["CGTCCAAGTTCAGCAGGTCAGTGAAAGCGACGTG", "label 0"],
  ["AGAACGATGGCACGCTGAGTTGATAGCAGAGTAG", "label 0"],
  ["CCGACTGGGGCAATGGTTACCATACTCAGTACGA", "label 1"]
]}

Query :: Given AGAACGAGGGCACGCTGCGTTGATAGCAGAGTAG , state whether its PBM binding z-score is at least -0.4.
Result :: label 0

====

- System: FXR:RXRa (NR concentration 270 nM, RXRa partner concentration 90 nM)
- experiment-description: PBM binding z-score (relative to random genomic background probes); higher = stronger binding; sequences stand for … in GC…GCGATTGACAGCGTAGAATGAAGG
measurement-type: PBM binding z-score
Reply briefly: the number, and no unit.

{"columns": ["monomer-sequence", "target-desc", "PBM binding z-score"],
 "data": [
  ["CCAGACAGGTGAAAGGTACCTCAGTCTGGTACGC", "FXR:RXRa (NR concentration 270 nM, RXRa partner concentration 90 nM)", -0.0455],
  ["CAGACTAGGTCACAGAGGTCAAAGTCCGTGCGTA", "FXR:RXRa (NR concentration 270 nM, RXRa partner concentration 90 nM)", 6.87]
]}

Query :: So what does the record say about PBM binding z-score for TAGCCTAGATCATTGGGCCAGTATAGTACGCATC ?
Result :: -0.685

Query :: So what does the record say about PBM binding z-score for TCATATACGTAAATGCTAGGTGAAAGTCCGATCT ?
Result :: 0.742

Query :: So what does the record say about PBM binding z-score for CAGCCTAGGTCAGGGCCAATATAGGAGGAACGTT ?
Result :: 1.73

Query :: So what does the record say about PBM binding z-score for CCTGCTAGGTCATGGTCAGATAATCTACAGTATG ?
Result :: 3.8

Query :: So what does the record say about PBM binding z-score for ATCGAAAGGTCGAGGTGATTATAGAGAAAGGGAA ?
Result :: 4.57

Query :: So what does the record say about PBM binding z-score for ATCGCTAGGTAACAAGTTCAGTGAAAGAGAGGAC ?
Result :: -0.045

Query :: So what does the record say about PBM binding z-score for AGAATGAGGTTTTACGTAGATCAGGGAAGAAAGT ?
Result :: -0.139

====

- System: FXR:RXRa (NR concentration 270 nM, RXRa partner concentration 90 nM)
- experiment-description: PBM binding z-score (relative to random genomic background probes); higher = stronger binding; sequences stand for … in GC…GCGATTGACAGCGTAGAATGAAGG
Assign met whenever PBM binding z-score does not fall below 1; assign not met whenever it does.

# count of solved cases: 5
{"columns": ["monomer-sequence", "answer-label"],
 "data": [
  ["CCTAGCAGGCCAATCTGGTTCACTCAAGGCTTGA", "not met"],
  ["ACTAGCAGGCCAAGTTTGGGTCACTTAAACAAAG", "not met"],
  ["TCTTGTAGATCGGCAGGTTAAGAAAGCTGGCCAA", "not met"],
  ["ACTAGGAGGCCAAGGGTCACTCAAGATTAGTCCG", "met"],
  ["CCTAGTTGGTCAAGAGGTCACACACCGGATATGA", "met"]
]}

Query :: Given CCCACTGGGCCAAGGTCATTGATCAGTCAAAGCA , state whether its PBM binding z-score is at least 1.
Result :: met

Query :: Given GCAGACAGGTAAAACGCAGGTAACTCAGGGTGGC , state whether its PBM binding z-score is at least 1.
Result :: not met

Query :: Given TCATATAGGTAATACAGGTAAAAGTCGGCATCTA , state whether its PBM binding z-score is at least 1.
Result :: met

Query :: Given TTACCAAGGTGAAAGGACGTTGATGCACGCCTTG , state whether its PBM binding z-score is at least 1.
Result :: not met

Query :: Given AGAACGAGGGCACGCTGAGTTGATGGCAGAGTAG , state whether its PBM binding z-score is at least 1.
Result :: not met

Query :: Given AATACAGGGTCATCGTAGGGCAGAGTACGCACAG , state whether its PBM binding z-score is at least 1.
Result :: met

Query :: Given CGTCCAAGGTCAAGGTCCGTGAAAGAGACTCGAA , state whether its PBM binding z-score is at least 1.
Result :: met

Query :: Given CCGACTGGGGCATAAAGTTACCATAAGCCAGCCC , state whether its PBM binding z-score is at least 1.
Result :: not met
